System: Lolium rigidum (LOLRI)
TEST_PROTOCOL: Post-emergence herbicidal action against LOLRI
Assay type: in vivo
CONDITION_LABEL: dosage 320 g/ha
RECORDED_ENDPOINT: Post-emergence action against LOLRI in % (%)

                    structure_smiles_string                         recorded_endpoint  assay_value
0  N#CCOC(=O)COc1nn(-c2ncccc2F)c(-c2ccc(F)nc2)c1C1CC1  Post-emergence action against LOLRI in %           90
1  COC(=O)COc1nn(-c2nc(F)ccc2F)c(-c2ccc(F)nc2)c1C1CC1  Post-emergence action against LOLRI in %           90
2  CCOC(=O)COc1nn(-c2ccccn2)c(-c2ccnc(F)c2)c1Br  Post-emergence action against LOLRI in %           90

----------
System: Oryza sativa (ORYSA)
Format: in vivo
CONDITION_LABEL: crop plant compatibility, 80 g/ha, effect in comparison to untreated controls
RECORDED_ENDPOINT: Post-emergence action against ORYSA in % (%)

In [3]: df
Out[3]:
                                    compound   experimental_system                         recorded_endpoint  assay_value
 0  CC(C)C(Oc1nn(-c2ccccn2)c(-c2ccc(F)nc2)c1Br)C(=O)O (stereo not shown)  Oryza sativa (ORYSA)  Post-emergence action against ORYSA in %            0
 1  O=C(O)COc1nn(-c2ccccn2)c(-c2ccc(Cl)nc2)c1Cl  Oryza sativa (ORYSA)  Post-emergence action against ORYSA in %            0
 2  O=C(O)COc1nn(-c2ccccn2)c(-c2ccnc(F)c2)c1Br  Oryza sativa (ORYSA)  Post-emergence action against ORYSA in %            0
 3  CCOC(=O)COc1nn(-c2nc(F)ccc2F)c(-c2cncc(F)c2)c1Br  Oryza sativa (ORYSA)  Post-emergence action against ORYSA in %           10
 4  O=C(O)CNC(=O)COc1nn(-c2ccnc(F)c2)c(-c2ccc(F)nc2)c1Br  Oryza sativa (ORYSA)  Post-emergence action against ORYSA in %           10
 5  COC(=O)CCOC(=O)[C@@H](C)Oc1nn(-c2ccccn2)c(-c2ccc(F)nc2)c1Cl  Oryza sativa (ORYSA)  Post-emergence action against ORYSA in %            0
 6  COC(=O)COc1nn(-c2ncccc2OC)c(-c2ccc(F)nc2)c1Cl  Oryza sativa (ORYSA)  Post-emergence action against ORYSA in %            0
 7  COC(=O)COc1nn(-c2nc(F)ccc2F)c(-c2ccc(F)nc2)c1Br  Oryza sativa (ORYSA)  Post-emergence action against ORYSA in %           20
 8  CCOC(=O)COc1nn(-c2ccccn2)c(-c2cncc(F)c2)c1Cl  Oryza sativa (ORYSA)  Post-emergence action against ORYSA in %            0
 9  C[C@@H](Oc1nn(-c2ccccn2)c(-c2cncc(F)c2)c1Br)C(=O)O  Oryza sativa (ORYSA)  Post-emergence action against ORYSA in %            0
10  O=C(O)COc1nn(-c2ncccc2C(F)(F)F)c(-c2ccc(F)nc2)c1Br  Oryza sativa (ORYSA)  Post-emergence action against ORYSA in %           10
11  COC(=O)CCOC(=O)COc1nn(-c2ncccc2F)c(-c2ccc(F)nc2)c1Cl  Oryza sativa (ORYSA)  Post-emergence action against ORYSA in %           10
12  CCOC(=O)COc1nn(-c2ncccc2C(F)(F)F)c(-c2ccc(F)nc2)c1Br  Oryza sativa (ORYSA)  Post-emergence action against ORYSA in %            0
13  C[C@@H](Oc1nn(-c2ccc(F)cn2)c(-c2cncc(F)c2)c1Br)C(=O)O  Oryza sativa (ORYSA)  Post-emergence action against ORYSA in %           10
14  COC(=O)C=CC(C)NC(=O)COc1nn(-c2ccccn2)c(-c2ccc(F)nc2)c1Br (stereo not shown)  Oryza sativa (ORYSA)  Post-emergence action against ORYSA in %           20
15  COC(=O)COc1nn(-c2nc(F)ccc2F)c(-c2cncc(F)c2)c1Br  Oryza sativa (ORYSA)  Post-emergence action against ORYSA in %           10
16  COC(=O)C(C)NC(=O)[C@@H](C)Oc1nn(-c2ccccn2)c(-c2ccc(F)nc2)c1Cl (stereo partly shown)  Oryza sativa (ORYSA)  Post-emergence action against ORYSA in %            0
17  CCOC(=O)[C@@H](C)Oc1nn(-c2ncccc2F)c(-c2ccc(F)nc2)c1Cl  Oryza sativa (ORYSA)  Post-emergence action against ORYSA in %            0
18  CCOC(=O)COc1nn(-c2cccnc2C)c(-c2cncc(F)c2)c1Br  Oryza sativa (ORYSA)  Post-emergence action against ORYSA in %            0
19  CC(C)=NOC(=O)COc1nn(-c2ncccc2F)c(-c2ccc(F)nc2)c1C1CC1  Oryza sativa (ORYSA)  Post-emergence action against ORYSA in %           20
20  C[C@@H](Oc1nn(-c2ccccn2)c(-c2ccc(Cl)nc2)c1Cl)C(=O)O  Oryza sativa (ORYSA)  Post-emergence action against ORYSA in %            0
21  COC(=O)CCOC(=O)COc1nn(-c2ccnc(F)c2)c(-c2ccc(F)nc2)c1Br  Oryza sativa (ORYSA)  Post-emergence action against ORYSA in %            0
22  CCCOC(=O)COc1nn(-c2ncccc2F)c(-c2ccc(F)nc2)c1C1CC1  Oryza sativa (ORYSA)  Post-emergence action against ORYSA in %            0
23  C[C@@H](Oc1nn(-c2nc(F)ccc2F)c(-c2ccc(F)nc2)c1C1CC1)C(=O)O  Oryza sativa (ORYSA)  Post-emergence action against ORYSA in %            0
24  C[C@@H](Oc1nn(-c2ncccc2F)c(-c2ccc(F)nc2)c1Br)C(=O)OCc1ccccn1  Oryza sativa (ORYSA)  Post-emergence action against ORYSA in %           10
25  COc1cccnc1-n1nc(OCC(=O)O)c(Br)c1-c1ccc(F)nc1  Oryza sativa (ORYSA)  Post-emergence action against ORYSA in %            0
26  COC(=O)[C@@H](C)Oc1nn(-c2ncccc2F)c(-c2ccnc(F)c2)c1I  Oryza sativa (ORYSA)  Post-emergence action against ORYSA in %            0
27  CCOC(=O)[C@@H](C)Oc1nn(-c2ncccc2F)c(-c2ccc(F)nc2)c1Br  Oryza sativa (ORYSA)  Post-emergence action against ORYSA in %           10
28  C[C@@H](Oc1nn(-c2ncccc2F)c(-c2ccnc(F)c2)c1Br)C(=O)O  Oryza sativa (ORYSA)  Post-emergence action against ORYSA in %            0
29  CCOC(=O)COc1nn(-c2cccnc2C)c(-c2ccc(F)nc2)c1Br  Oryza sativa (ORYSA)  Post-emergence action against ORYSA in %            0
30  COC(=O)[C@@H](C)Oc1nn(-c2nc(F)ccc2F)c(-c2ccc(F)nc2)c1Cl  Oryza sativa (ORYSA)  Post-emergence action against ORYSA in %           20
31  CCOC(=O)COc1nn(-c2ccccn2)c(-c2ccc(Cl)nc2)c1Br  Oryza sativa (ORYSA)  Post-emergence action against ORYSA in %            0
32  COC(=O)COc1nn(-c2ncccc2F)c(-c2ccc(F)nc2)c1Br  Oryza sativa (ORYSA)  Post-emergence action against ORYSA in %            0
33  O=C(COc1nn(-c2ncccc2F)c(-c2ccc(F)nc2)c1C1CC1)ON=C1CCCC1  Oryza sativa (ORYSA)  Post-emergence action against ORYSA in %           10
